test.description: yeast display, Sf9 membrane polyspecificity reagent, FACS + sequencing; frameworks hold sequencing errors
metric.name: polyreactivity (PSR sort gate)

Consider the reported polyreactivity (PSR sort gate) for these sequences:
QVQLVESGGGLVQAGGSLRLSCAASGYIFGWYAMGWYRQAPGKERELVATIDWSGDSTYYADSVKGRFTISRDNAKNTVYLQMNSLKPEDTAVYYCSAGVGYITYYGYDYWGQGTQVTVSS low polyreactivity
QVQHVESGGGLVQAGGSLRLSCAASGRIFVPYVMGWYRQAPGKERELVASISDSDTSTYDADSVKGRFTISRDNAKTTVYLQMNSLKPEDTAVYYCNVDYWGKGTQVTVSS low polyreactivity
QVQLVESGGGLVQAGGSLRLSCSASGFTFYRNAMGWYRQAPGKERELVASISRSGGSTYYADSVKGRFTISRDNAKNTVYLQMNSLKPEDTAVYYCAADLCWIYPHKYYYWGQGTQVTVSS high polyreactivity
QVQLVETGGGLVQAGGTLRLSCAASGRIFRRYAMVWYRQAPGKEREFVAAITDGSTYYADSVKGRFTISRDNAKNTVYLQMNSLNPEDPAVYYCATQFGWSYSRRFYYWGQGTQVTVSS high polyreactivity
QVQLVESGGGLVQAGGSLRLSCAASGRIFGRYAMGWYRQAPGKERELVAAITSSGGSTYYADSVKGRFTISRDNAKNTVYLQMNSLKPEDTAVYYCAADSQYKYDYWGQGTQVTVSS high polyreactivity
QVQLVESGGGLVQAGGSLRLSCAASGSIFYTYAMGWYRQAPGKERELVAAISSGGSTTYADSVKGRFTISRDNAKNTVYLQMKSLKPEDTAVYYCNTSYRKKKRYYYWGQGTQVTVSS high polyreactivity
QVQLVESGGGLVQAGGSLRLSCAASGSTFGHYVMGWYRQATGKERELVAAISYNGGSTYYADSVKGRFTISRDNAKNTVYLQMNSLKPEDTAVYSCAARGSYSFYRRVDYWGQGTQVTVSS high polyreactivity
QVQPVESGGGLVQAGGSLRLSCAASGRIFGDYAMGWYRQAPGKERELVAAINCSGTSTNYADSVKGRFTISRDNAKYTVYLEMNSLKPEFTAVYYCNAEGTYRPEYDSWVQGTQVTVSS low polyreactivity

GET /values?readout=polyreactivity (PSR sort gate)&item= QVQLVESGGGLVQAGGSLRLSCAASGRIFWRNTMGWYRQAPGKERELVAAINYSGGRTYYADSVKGRFTISRDNAKNTVYLQMNSLKPEDTAVYYCAATPPVATNGRYYYWGQGTQVTVSS
low polyreactivity

Continue with QVQLVESGGGLVQAGGSLRLSCAASGSTFWYNAMGWYRQAPGKERELVAAITTRGDSTYYADSVKGRFTISRDNAKNTVYLQMNSLKPEDTAVYYCAADWAWYSYDWYYWYDYWGQGTQVTVSS
high polyreactivity

// repeat for QVQLVESGGGLVQAGGSLRLSCAASGLIFTYYAMGWYRQAPGKERELVAGISSGTNTNYADSVKGRFTISRDNAKNTVYLQMISLKPEDTAVYYCAKTRGYQFVAYGYWGQGTQVTVSS and report
low polyreactivity

Another sequence: QVQLVESGGGLVQAGGSLRLSCAPSGRTFIFYAMGWYRQAPGKERELVAAISSSGSGTYYADSLKGRFTISRDNAKNTVYLQMNSLKPEDTAVYSCAAAVVNSRRRPKYGYWGQGTQVTVSS
low polyreactivity

Can you check QVQLQESGGGLVQAGGSLRLSCAASGNIVDADIMGWYRQAPGKEREIVASITDGGSTNYADSLKGRFTISRDNAKNTVYQQMNSLIPEDTAVYYCAAIAYPDIPPYFDYDSDYFDWGQGTQETVSS next?
high polyreactivity

Likewise for QVQLVESGGGLVQAGGSLRLSCAASGIIFPRYAMGWYRQEPGKERELVAAITRRGGRTYYADSVKGRFTISRDNAKNTVYLQMNSLKPEDTAVYYCAARKVNRGSGGYDSWGQGTQVTVSS ?
high polyreactivity
